# experimental.system: Ba/F3 EGFR Del19/C797S mutants (Homo sapiens, UniProt P00533, C797S, cells depend on it, form not given)
# Sequence (P00533 with tags, fused parts or gaps DEL746-750/C797S, form open): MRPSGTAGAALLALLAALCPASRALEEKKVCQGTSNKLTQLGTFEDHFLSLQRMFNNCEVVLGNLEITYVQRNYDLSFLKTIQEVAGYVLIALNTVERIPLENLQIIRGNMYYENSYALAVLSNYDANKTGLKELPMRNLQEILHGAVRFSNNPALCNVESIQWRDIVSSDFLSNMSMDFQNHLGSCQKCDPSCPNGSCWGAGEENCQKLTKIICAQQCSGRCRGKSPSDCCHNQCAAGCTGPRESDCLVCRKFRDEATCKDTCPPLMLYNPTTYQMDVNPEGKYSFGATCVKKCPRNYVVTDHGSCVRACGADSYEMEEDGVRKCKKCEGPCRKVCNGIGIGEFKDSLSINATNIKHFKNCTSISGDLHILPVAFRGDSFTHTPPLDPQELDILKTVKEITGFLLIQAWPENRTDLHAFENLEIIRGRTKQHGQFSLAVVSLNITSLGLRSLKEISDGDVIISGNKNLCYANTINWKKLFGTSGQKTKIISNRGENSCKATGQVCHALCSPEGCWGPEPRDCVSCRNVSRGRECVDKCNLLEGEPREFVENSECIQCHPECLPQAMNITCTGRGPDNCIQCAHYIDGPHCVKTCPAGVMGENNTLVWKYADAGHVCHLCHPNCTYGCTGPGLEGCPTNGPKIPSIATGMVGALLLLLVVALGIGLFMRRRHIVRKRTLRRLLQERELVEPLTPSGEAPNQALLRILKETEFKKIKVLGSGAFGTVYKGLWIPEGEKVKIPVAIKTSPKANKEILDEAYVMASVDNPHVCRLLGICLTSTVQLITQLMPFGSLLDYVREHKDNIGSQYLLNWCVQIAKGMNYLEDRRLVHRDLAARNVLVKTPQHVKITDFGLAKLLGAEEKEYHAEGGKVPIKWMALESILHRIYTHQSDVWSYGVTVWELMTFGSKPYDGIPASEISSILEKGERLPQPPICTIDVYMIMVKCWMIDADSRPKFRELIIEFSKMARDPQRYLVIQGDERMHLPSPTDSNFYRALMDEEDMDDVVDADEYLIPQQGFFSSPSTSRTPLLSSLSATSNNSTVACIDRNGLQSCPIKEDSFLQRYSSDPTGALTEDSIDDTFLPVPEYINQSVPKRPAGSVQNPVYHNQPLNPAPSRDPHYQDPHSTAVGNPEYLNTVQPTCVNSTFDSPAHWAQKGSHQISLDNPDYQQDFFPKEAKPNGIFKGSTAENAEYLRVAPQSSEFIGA
# experiment.description: CellTiter-Glo cell viability, Ba/F3 EGFR Del19/C797S cells
# Assay type: cell-based, murine
# test.conditions: 72 hours, read-out: Ba/F3 EGFR mutant cell (IC50, nM) D/C
Label key: criterion met means GI50 under 9 nM; criterion not met means GI50 of 9 nM or more.

[ask] Does the reported GI50 of the following compound sit strictly below 9 nM? CCCc1cc(Nc2ncc(Cl)c(Nc3ccc4nccnc4c3N(C)S(C)(=O)=O)n2)c(OC)cc1N1CCC(N2CCOCC2)CC1 [Example A41]
[reply] criterion met

[ask] Does the reported GI50 of the following compound sit strictly below 9 nM? CCc1cc(Nc2ncc(Cl)c(Nc3ccc4nccnc4c3N(C)S(C)(=O)=O)n2)c(OC)cc1N1CCC(N2CC3CCC2CN3C)CC1 (stereo not drawn) [Example A47]
[reply] criterion met

[ask] Does the reported GI50 of the following compound sit strictly below 9 nM? COc1cc(N2CCC(N3CCN(C)CC3)CC2)c(C)cc1Nc1ncc(C(F)(F)F)c(Nc2ccc3nccnc3c2NS(C)(=O)=O)n1 [Example A20]
[reply] criterion not met

[ask] Does the reported GI50 of the following compound sit strictly below 9 nM? CCCc1cc(Nc2ncc(Cl)c(Nc3ccc4c(c3NS(C)(=O)=O)OCCO4)n2)c(OC)cc1N1CCC(N(C)C)CC1 [Example C13]
[reply] criterion not met

[ask] Does the reported GI50 of the following compound sit strictly below 9 nM? COc1cc(N2CCC(N3CCN(C)CC3)CC2)c(C)cc1Nc1ncc(Cl)c(Nc2ccc3nccnc3c2NS(C)(=O)=O)n1 [Example A1]
[reply] criterion not met

This collection of values is drawn from patent US12297194B2.
